# TARGET: Serine/threonine-protein kinase RIO2 (Homo sapiens)
Please enter Criterion met where ΔTm is greater than or equal to 0 °C, and Criterion not met where it is lower.

Record excerpt, results attached:
COc1ccc(Cl)cc1NC(=O)Nc1cc(C)nc2ccccc12    Criterion met
COc1cc(/C=C/C(=O)CC(=O)/C=C/c2ccc(O)c(OC)c2)ccc1O    Criterion met
CC(C)(C)n1nc(-c2ccc(Cl)cc2)c2c(N)ncnc21    Criterion met
Cc1cc2ncc(-c3ccccc3)nc2cc1C    Criterion not met
O=C1NC(=O)c2c1c1c3ccccc3n3c1c1c2c2ccccc2n1C1CCC3O1    Criterion not met

## Input Dear colleague, could you confirm whether CN1CCc2[nH]c(=S)c(C#N)c(-c3cccs3)c2C1 has ΔTm at or above 0 °C?
## Output Criterion met

## Input Okay, and O=c1sn(Cc2ccccc2)c(=S)n1Cc1ccccc1 ?
## Output Criterion met

## Input How about O=C1C(Cl)=C(N2C(=O)CCC2=O)C(=O)c2ccccc21 ?
## Output Criterion not met

## Input Same for CN1CCC(Nc2ncc3ncnc(Nc4ccc(F)c(Cl)c4)c3n2)CC1
## Output Criterion not met

## Input Same again, this time with COc1cc(C[C@H]2C(=O)OC[C@@H]2Cc2ccc(OC)c(OC)c2)ccc1O
## Output Criterion not met

## Input Okay, and Cl.Cn1cc(C2=C(c3ccc4cc5n(c4c3)CCC(CN)C5)C(=O)NC2=O)c2ccccc21 (stereo unspecified) ?
## Output Criterion not met

## Input Also check N#C/C(=C\c1ccc(O)c(O)c1)C(=O)Nc1ccccc1
## Output Criterion met

###

ΔTm values recorded for Casein kinase I isoform gamma-3 (Homo sapiens) (UniProt Q9Y6M4)
Provide the reading as a plain figure in °C.

// worked examples, ΔTm included
Cc1cc(C=C2C(=O)C=CC2=O)cc(C)c1O    -0.1
COc1cc2ncnc(Nc3cccc(Br)c3)c2cc1OC    -0.1

## Input Please tell me: ΔTm of O=C1C(Cl)=C(N2C(=O)CCC2=O)C(=O)c2ccccc21 , system Casein kinase I isoform gamma-3 (Homo sapiens) (UniProt Q9Y6M4)?
## Output 0.1

## Input Then this compound: O=c1c(-c2ccc(F)cc2)c(-c2ccncc2)[nH]n1-c1ccc(Cl)cc1
## Output 0.5

## Input COC1=C2C[C@@H](C)C[C@H](OC)[C@H](O)[C@@H](C)/C=C(\C)[C@H](OC(N)=O)[C@@H](OC)/C=C\C=C(/C)C(=O)NC(=CC1=O)C2=O , same question.
## Output 0.4

## Input And for CCCNC(=O)Nc1ccc(Oc2ncnc3cc(OC)c(OC)cc23)cc1Cl [KRN-633] ?
## Output -3.7

## Input How about COc1cc(OC)c(/C=C2\C(=O)Nc3ccccc32)c(OC)c1 ?
## Output 0.5

## Input Consider next the compound O=c1c(O)c(-c2ccc(O)c(O)c2)oc2cc(O)cc(O)c12 [QUERCETIN] in the same way.
## Output 2.9

## Input // next record C[S+]([O-])c1ccc(-c2nc(-c3ccc(F)cc3)c(-c3ccncc3)[nH]2)cc1 (centres undefined) [SB-203580]
## Output 0.4

###

# PROCEDURE_TEXT: Inhibition of p34cdc2/cyclin B
VALUE_KIND: pIC50
# pIC50 is unitless: minus log10 of the molar concentration; print number only

## Input // lookup pIC50 for CCOc1cc2ncnc(Nc3cccc(Br)c3)c2cc1OCC
## Output 3.52

###

# TARGET: Mitogen-activated protein kinase kinase kinase 5 (Homo sapiens) (UniProt Q99683)
# Sequence (whole entry): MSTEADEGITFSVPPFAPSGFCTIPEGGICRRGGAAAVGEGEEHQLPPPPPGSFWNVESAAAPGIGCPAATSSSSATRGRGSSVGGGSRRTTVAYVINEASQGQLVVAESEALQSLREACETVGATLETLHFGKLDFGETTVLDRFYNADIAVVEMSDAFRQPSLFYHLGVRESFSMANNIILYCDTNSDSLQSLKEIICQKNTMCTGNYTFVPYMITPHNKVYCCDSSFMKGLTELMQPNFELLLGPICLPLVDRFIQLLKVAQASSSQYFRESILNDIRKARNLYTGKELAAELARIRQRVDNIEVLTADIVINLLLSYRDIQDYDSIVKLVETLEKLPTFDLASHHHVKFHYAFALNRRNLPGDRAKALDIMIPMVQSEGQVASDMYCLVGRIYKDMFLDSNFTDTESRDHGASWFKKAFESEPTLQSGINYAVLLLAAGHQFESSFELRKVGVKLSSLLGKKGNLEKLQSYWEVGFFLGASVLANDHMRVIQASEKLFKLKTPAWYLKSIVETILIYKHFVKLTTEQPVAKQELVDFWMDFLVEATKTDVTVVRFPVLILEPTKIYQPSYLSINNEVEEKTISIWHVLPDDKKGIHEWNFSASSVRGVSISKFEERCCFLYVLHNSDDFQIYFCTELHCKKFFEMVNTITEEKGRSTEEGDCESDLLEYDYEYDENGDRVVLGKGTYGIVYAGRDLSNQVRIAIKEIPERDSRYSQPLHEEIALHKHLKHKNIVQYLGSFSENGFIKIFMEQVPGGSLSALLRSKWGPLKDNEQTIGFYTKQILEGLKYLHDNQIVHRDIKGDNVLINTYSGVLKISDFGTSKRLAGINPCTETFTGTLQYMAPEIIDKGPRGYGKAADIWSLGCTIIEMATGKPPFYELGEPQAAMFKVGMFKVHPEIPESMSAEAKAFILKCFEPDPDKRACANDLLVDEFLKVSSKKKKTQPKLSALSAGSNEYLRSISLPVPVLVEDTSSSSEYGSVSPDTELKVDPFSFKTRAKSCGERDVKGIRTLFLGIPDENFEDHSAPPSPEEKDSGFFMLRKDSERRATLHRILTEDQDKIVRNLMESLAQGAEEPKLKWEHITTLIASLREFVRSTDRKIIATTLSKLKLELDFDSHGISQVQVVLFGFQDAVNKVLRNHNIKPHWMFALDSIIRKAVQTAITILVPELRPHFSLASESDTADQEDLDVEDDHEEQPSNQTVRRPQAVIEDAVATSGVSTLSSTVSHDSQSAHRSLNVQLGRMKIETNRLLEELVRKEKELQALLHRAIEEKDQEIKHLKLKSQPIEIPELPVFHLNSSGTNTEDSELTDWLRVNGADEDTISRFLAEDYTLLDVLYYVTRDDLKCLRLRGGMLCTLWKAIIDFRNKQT
// reported ΔTm for each item listed
Be sure to follow the number with its unit.

// known answers, use as guide
COc1cc2ncnc(Nc3cccc(O)c3)c2cc1OC    1 °C
C[C@@H](N)[C@H]1CC[C@H](C(=O)Nc2ccncc2)CC1    1.1 °C
CN(c1cccnc1)c1cc2c(Nc3ccc(F)c(Cl)c3)c(C#N)cnc2cn1    1.4 °C
CCOC(=O)c1c(C)[nH]c(/C=C2\C(=O)Nc3ccccc32)c1C    -1.4 °C
COc1cc(/C=C/C(=O)CC(=O)/C=C/c2ccc(O)c(OC)c2)ccc1O    3.1 °C
O=C1Nc2ccc(I)cc2/C1=C\c1cc(Br)c(O)c(Br)c1    1.7 °C
O=c1sn(Cc2ccccc2)c(=S)n1Cc1ccccc1    0.2 °C
COc1cc2ncnc(Nc3ccc(F)c(Cl)c3)c2cc1OCCCN1CCOCC1    0.1 °C
O=C1Nc2ccc(S(=O)(=O)O)cc2/C1=C1/Nc2ccccc2/C1=N\O    3.8 °C
CN(C)c1ncnc2nc[nH]c12    2.8 °C

## Input What ΔTm appears in the records for this molecule with Mitogen-activated protein kinase kinase kinase 5 (Homo sapiens) (UniProt Q99683)? O=C1c2ccccc2-[n+]2ccc3c([nH]c4ccccc43)c21 [FASCAPLYSIN CHLORIDE]
## Output -2.6 °C

## Input And for Nc1ncnc2c1c(I)cn2[C@@H]1O[C@H](CO)[C@@H](O)[C@H]1O ?
## Output 0.9 °C

## Input Now give it for COc1ccc2c(c[n+](C)c3c4cc5c(cc4ccc23)OCO5)c1OC [CHELERYTHRINE CHLORIDE] too.
## Output -0.2 °C

## Input Same read-out for O=c1cc(-c2ccc(O)cc2)oc2cc(O)cc(O)c12 ?
## Output 1.1 °C

## Input Follow-up entry: CN(C)CC1CCn2c(c(C3=C(c4c[nH]c5ccccc45)C(=O)NC3=O)c3ccccc32)C1 (configuration not stated)
## Output 0 °C

###

Target or system Serine/threonine-protein kinase Nek6 (Homo sapiens) (UniProt Q9HC98); recorded quantity ΔTm.
Write your answer as a measured quantity: the number, then the unit.

Nc1cc2ncnc(Nc3cccc(Br)c3)c2cc1N    -0.2 °C
Clc1ccc(Nc2nnc(Cc3ccncc3)c3ccccc23)cc1    0.1 °C
Cc1c2ccncc2c(C)c2c1[nH]c1ccccc12    2.5 °C
Nc1ncnc2c1c(I)cn2[C@@H]1O[C@H](CO)[C@@H](O)[C@H]1O    -0.2 °C
Cc1nc2sccn2c(=O)c1CCN1CCC(=C(c2ccccc2)c2ccc(F)cc2)CC1    0.1 °C

Next, consider the following compound.
## Input Returns the measured ΔTm for the input compound. Input: CCN(CC)CCNC(=O)c1c(C)[nH]c(/C=C2\C(=O)Nc3ccc(F)cc32)c1C
## Output 3.4 °C
